Value source: paper PMC3618506

Protein target, amino acids: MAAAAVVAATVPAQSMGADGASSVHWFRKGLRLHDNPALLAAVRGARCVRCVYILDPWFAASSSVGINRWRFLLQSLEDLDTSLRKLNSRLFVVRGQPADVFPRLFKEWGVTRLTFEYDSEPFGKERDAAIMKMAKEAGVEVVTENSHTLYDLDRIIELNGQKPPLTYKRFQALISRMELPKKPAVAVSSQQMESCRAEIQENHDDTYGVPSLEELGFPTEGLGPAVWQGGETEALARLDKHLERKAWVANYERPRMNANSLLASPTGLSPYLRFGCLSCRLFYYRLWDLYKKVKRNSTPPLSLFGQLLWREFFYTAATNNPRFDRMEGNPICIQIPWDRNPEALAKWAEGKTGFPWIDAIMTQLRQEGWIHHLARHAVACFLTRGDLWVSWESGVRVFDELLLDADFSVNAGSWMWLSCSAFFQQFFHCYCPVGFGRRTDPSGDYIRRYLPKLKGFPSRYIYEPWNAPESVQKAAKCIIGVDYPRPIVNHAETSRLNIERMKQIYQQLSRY
pKd: −log10 of the molar value.
experimental.endpoint: pKd

query: Consider the compound Cc1cc2nc3c(=O)[nH]c(=O)nc-3n(C[C@H](O)[C@H](O)[C@H](O)COP(=O)(O)OP(=O)(O)OC[C@H]3O[C@@H](n4cnc5c(N)ncnc54)[C@H](O)[C@@H]3O)c2cc1C [FAD] and give its measured pKd.
result: ~4.40
